# maps each entry to its Phytotoxicity So
tested on: soybean plant (So); experiment: Test Example 3: phytotoxicity to upland crop plants, treatment before emergence; format: in vivo; details: dosage 5 kg/ha

CCCNC(=O)c1nc2sccc2cc1C(=O)Nc1c(CC)ccc(Cl)c1CC :: 5 (Crop-killing rate is 100%.)
CCNC(=O)c1nc2ncccc2cc1C(=O)Nc1c(CC)ccc(Cl)c1CC :: 3 (Crop-killing rate is 70-89%.)
CCCNC(=O)c1nc2c(cc1C(=O)Nc1c(CC)ccc(Cl)c1CC)CCOC2 :: 5 (Crop-killing rate is 100%.)
CCc1ccc(Cl)c(CC)c1NC(=O)c1cc2c(nc1C(=O)NC1CCCC1)SCCC2 :: 4 (Crop-killing rate is 90-99%.)
CCNC(=O)c1nc2ccn(OC)c2cc1C(=O)Nc1c(CC)ccc(Cl)c1CC :: 4 (Crop-killing rate is 90-99%.)

// recorded Phytotoxicity So for CCCNC(=O)c1nc2c(cc1C(=O)Nc1c(CC)ccc(Cl)c1CC)CCO2 : 5 (Crop-killing rate is 100%.)

// recorded Phytotoxicity So for CCc1ccc(Cl)c(CC)c1NC(=O)c1nc2ccccc2nc1C(=O)NCC(C)C : 5 (Crop-killing rate is 100%.)

// recorded Phytotoxicity So for CCCNC(=O)c1nc2c(cc1C(=O)Nc1cccc(Cl)c1C)CCOC2 : 4 (Crop-killing rate is 90-99%.)

// recorded Phytotoxicity So for CCNC(=O)c1nc2ccccc2nc1C(=O)Nc1c(CC)ccc(Cl)c1CC : 5 (Crop-killing rate is 100%.)

// recorded Phytotoxicity So for CCCNC(=O)c1nc2c(cc1C(=O)Nc1c(CC)ccc(Cl)c1CC)CCCO2 : 4 (Crop-killing rate is 90-99%.)

// recorded Phytotoxicity So for CCCNC(=O)c1nc2ccccc2nc1C(=O)Nc1cccc(Cl)c1C : 3 (Crop-killing rate is 70-89%.)

// recorded Phytotoxicity So for Cc1c(Cl)cccc1NC(=O)c1cc2sccc2nc1C(=O)NC1CCCC1 : 3 (Crop-killing rate is 70-89%.)

// recorded Phytotoxicity So for CCNC(=O)c1nc2c(cnn2C)cc1C(=O)Nc1c(CC)ccc(Cl)c1CC : 5 (Crop-killing rate is 100%.)

// recorded Phytotoxicity So for CCCNC(=O)c1nc2c(cc1C(=O)Nc1c(CC)ccc(Cl)c1CC)nc(C)n2C : 4 (Crop-killing rate is 90-99%.)

Origin of measurements: patent US6444617B1
